The measurements presented in this section are drawn from ChEMBL document CHEMBL3045028.

- System: Agrobacterium sp.
- procedure_summary: In vitro antibacterial activity against Agrobacterium radiobacter pv. tumefaciens assessed as inhibition at 0.1 %
- Assay type: functional
Assign diameter of the inhibition zone (DIZ) to each entry below.
Provide a numeric answer, followed by its unit.

Query block: Which diameter of the inhibition zone (DIZ) value belongs to `CCCCn1cnc2cc(C)c(C)cc21` ?
Result block: 3 cm

Query block: Which diameter of the inhibition zone (DIZ) value belongs to `COc1cccc(Cn2c(N)nc3ccccc32)c1` ?
Result block: 3 cm

Query block: Which diameter of the inhibition zone (DIZ) value belongs to `CCn1c(N)nc2cc(C)c(C)cc21` ?
Result block: 2 cm

Query block: Which diameter of the inhibition zone (DIZ) value belongs to `CCCCn1c(N)nc2cc(C)c(C)cc21` ?
Result block: 3 cm

Working through the 5 molecules below one at a time, give diameter of the inhibition zone (DIZ) for each.
1. Cc1cc2nc(N)n(/N=C/c3ccc([N+](=O)[O-])o3)c2cc1C
2. CCn1c(N)nc2ccccc21
3. CCCCn1c(N)nc2ccccc21
4. Cc1ccc(Cn2c(/N=C/c3ccc([N+](=O)[O-])o3)nc3cc(C)c(C)cc32)cc1
5. Cc1ccc(Cn2c(N)nc3ccccc32)cc1

Result block:
1. 3 cm
2. 3 cm
3. 3 cm
4. 3 cm
5. 3 cm

Working through the 4 molecules below one at a time, give diameter of the inhibition zone (DIZ) for each.
1. COc1cccc(Cn2cnc3cc(C)c(C)cc32)c1
2. Cc1cccc(Cn2c(N)nc3ccccc32)c1
3. Cc1cc2nc(/N=C/c3ccc([N+](=O)[O-])o3)[nH]c2cc1C
4. CCn1cnc2cc(C)c(C)cc21

Result block:
1: 3 cm; 2: 2 cm; 3: 3 cm; 4: 3 cm
